Hello, the source for this data is patent US20120301469A1, in case you need it.

Molecular target: T1, hRSV FTM-NN (membrane anchorless form of the Long fusion protein, 70 kDa) (human respiratory syncytial virus, …, UniProt P12568 26-524)
T1 construct: also called FTM-NN (Long); hRSV FTM-protein
Experiment: competition ELISA on FTM-NN, competitor 101F Fab, purified Nanobody
# maps each entry to its IC50

[
  {
    "Binder": "Nanobody 13D1 (VHH, also called PMP13D1; PRSV13D1) VHH: EVQLVESGGGLVQPGGSLRLSCATSGFTEDYYVIGWFRQAPGKEREGVSCMSSSGDSTTYADSVKGRFTISRDNAKNMVYLQMTSLKPEDTAVYYCAADFALGCYSGSYYPRYDYWGQGTQVTVSS",
    "Reading unit": "nM",
    "IC50": 3.37
  },
  {
    "Binder": "Nanobody 8A1 (VHH, also called PMP8A1; PRSV8A1) VHH: EVQLVESGGGLVQPGGSLRVSCAASGFTFNDYIMGWFRQAPGKERMFIAAISGTGTIKYYGDLVRGRFTISRDNAKNTVYLRIDSLNPEDTAVYYCAARQDYGLGYRESHEYDYWGQGTQVTVSS",
    "Reading unit": "nM",
    "IC50": 2.81
  },
  {
    "Binder": "Nanobody 13E12 (VHH, also called PMP13E12; PRSV13E12) VHH: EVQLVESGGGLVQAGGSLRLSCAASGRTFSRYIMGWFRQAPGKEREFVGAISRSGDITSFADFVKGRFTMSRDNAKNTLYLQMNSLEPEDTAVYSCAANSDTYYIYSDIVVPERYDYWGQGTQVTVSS",
    "Reading unit": "nM",
    "IC50": 3.52
  },
  {
    "Binder": "Nanobody 13C1 (VHH, also called PMP13C1; PRSV13C1) VHH: EVQLVESGGGLVQPGGSLRLSCEASGFTWDYYVIGWFRQAPGKEREGLSCISSDGSTTYADSVKGRFTISRDNAKNTVYLQMNSLEPEDTAVYYCATDPALGCYSGSYYPRYDYWGQGTQVTVSS",
    "Reading unit": "nM",
    "IC50": 3.83
  },
  {
    "Binder": "Nanobody 13B4 (VHH, also called PMP13B4; PRSV13B4) VHH: EVQLVESGGGLVQAGGSLRLSCAASGFTFDDYAIGWFRQAPGKEREAVSCISSSDGSTYYADSVKGRFTISSDNAKNMVYLQMNSLKPEDTAVYYCAADLLRTAVGCLDYRGTYYPRTTMDYRGKGTLVTVSS",
    "Reading unit": "nM",
    "IC50": 3.69
  },
  {
    "Binder": "Nanobody 1B2 (VHH, c-myc/His6-tagged; also called PMP1B2; PRSV1B2) VHH: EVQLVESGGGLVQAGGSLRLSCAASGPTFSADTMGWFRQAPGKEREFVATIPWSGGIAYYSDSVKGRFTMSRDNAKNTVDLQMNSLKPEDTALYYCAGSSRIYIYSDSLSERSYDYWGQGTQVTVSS",
    "Reading unit": "nM",
    "IC50": 2.91
  },
  {
    "Binder": "Nanobody 23E5 (VHH, also called PMP23E5; PRSV23E5) VHH: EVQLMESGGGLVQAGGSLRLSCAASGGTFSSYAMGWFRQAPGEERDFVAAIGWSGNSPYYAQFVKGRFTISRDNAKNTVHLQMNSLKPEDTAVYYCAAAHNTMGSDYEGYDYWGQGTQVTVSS",
    "Reading unit": "nM",
    "IC50": 1.73
  },
  {
    "Binder": "Nanobody 13A1 (VHH, also called PMP13A1; PRSV13A1) VHH: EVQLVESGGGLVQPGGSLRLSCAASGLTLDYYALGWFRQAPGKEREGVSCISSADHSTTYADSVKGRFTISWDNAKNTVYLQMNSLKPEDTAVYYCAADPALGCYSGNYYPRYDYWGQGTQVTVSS",
    "Reading unit": "nM",
    "IC50": 4.23
  },
  {
    "Binder": "Nanobody 1A2 (VHH, also called PMP1A2; PRSV1A2) VHH: EVQLVESGGGLVQAGGSLRLSCAASERTFSYYAMGWFRQAPGKEREFVATISRSGEWIYYKDAMKGRFTISRDNANNAVYLQMNSLQPEDTAIYYCAADSLGGFRSASDYYNTNTYAYWGQGTQVTVSS",
    "Reading unit": "nM",
    "IC50": 2.9
  },
  {
    "Binder": "Nanobody 19E2 (VHH, also called PMP19E2; PRSV19E2) VHH: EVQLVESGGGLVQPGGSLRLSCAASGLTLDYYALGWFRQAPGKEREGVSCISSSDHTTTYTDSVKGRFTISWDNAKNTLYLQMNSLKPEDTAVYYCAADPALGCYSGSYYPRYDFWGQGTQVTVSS",
    "Reading unit": "nM",
    "IC50": 2.93
  }
]
